assay.system: T1, human EphA2 (Homo sapiens, UniProt P29317)
T1 construct: a protein of the extracellular region of each human Eph receptor fused with the SEAP protein and the His tag; made in house; host or cells: Expi293F cells (culture supernatant)
T1 sequence (P29317 24-537 limits assumed): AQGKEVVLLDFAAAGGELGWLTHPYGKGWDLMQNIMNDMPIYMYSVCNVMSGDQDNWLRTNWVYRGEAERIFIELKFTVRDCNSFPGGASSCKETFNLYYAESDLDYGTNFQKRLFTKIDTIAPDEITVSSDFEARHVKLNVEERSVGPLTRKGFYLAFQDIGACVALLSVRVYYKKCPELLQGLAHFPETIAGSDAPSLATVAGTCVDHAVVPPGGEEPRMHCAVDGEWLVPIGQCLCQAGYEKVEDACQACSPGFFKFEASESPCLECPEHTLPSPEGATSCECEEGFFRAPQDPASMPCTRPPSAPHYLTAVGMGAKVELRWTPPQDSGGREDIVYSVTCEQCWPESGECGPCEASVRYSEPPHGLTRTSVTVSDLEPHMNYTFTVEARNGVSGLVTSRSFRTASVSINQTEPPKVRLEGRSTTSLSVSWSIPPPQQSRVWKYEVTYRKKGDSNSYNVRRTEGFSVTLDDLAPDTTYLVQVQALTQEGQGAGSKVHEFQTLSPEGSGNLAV
assay.details: Selectivity ELISA of humanized antibodies for human Eph receptor
Format: binding
particulars: coated protein 1 nM
Description: According to the method described in Example 7, a DNA sequence encoding the signal sequence and the extracellular region of each human Eph receptor (EphA1, EphA2, EphA3, EphA4, EphA5, EphA6, EphA7, EphA8, EphA10, EphB1, EphB2, EphB3, EphB4, and EphB6) was amplified by RT-PCR using tissue-derived total RNA and cloned into a pENTR1A vector (Invitrogen/Life Technologies) having a DNA sequence encoding SEAP protein and histidine tag. […]
readout: hEphA2-SEAP-: absorbance at 450 nm, percentage with respect to hEphA4-SEAP-His as 100% (%)
Output spec: scalar in %, unitless text.

Q) Name the recorded hEphA2-SEAP-: absorbance at 450 nm, percentage with respect to hEphA4-SEAP-His as 100% of the item 152 (antibody, V domains shown, synthetic humanized antibody heavy chain variable region sequence; synthetic humanized antibody light chain variable region sequence) VH: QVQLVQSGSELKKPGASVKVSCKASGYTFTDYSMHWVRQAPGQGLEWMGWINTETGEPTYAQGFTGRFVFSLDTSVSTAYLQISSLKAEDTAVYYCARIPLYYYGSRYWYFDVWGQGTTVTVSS VL: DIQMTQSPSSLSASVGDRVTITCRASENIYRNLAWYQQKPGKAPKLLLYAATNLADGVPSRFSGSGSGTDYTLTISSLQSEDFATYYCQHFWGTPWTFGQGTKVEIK in your answer.
A) 5.8

Q) Name the recorded hEphA2-SEAP-: absorbance at 450 nm, percentage with respect to hEphA4-SEAP-His as 100% of the item 71 (antibody, V domains shown, synthetic humanized antibody heavy chain variable region sequence; synthetic humanized antibody light chain variable region sequence) VH: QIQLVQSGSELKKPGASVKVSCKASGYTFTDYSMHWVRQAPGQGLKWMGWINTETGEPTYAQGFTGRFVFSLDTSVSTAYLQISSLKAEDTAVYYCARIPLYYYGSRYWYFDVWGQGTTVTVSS VL: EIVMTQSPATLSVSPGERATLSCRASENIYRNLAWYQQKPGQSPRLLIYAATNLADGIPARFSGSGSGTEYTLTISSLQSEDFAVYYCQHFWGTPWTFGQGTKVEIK in your answer.
A) 5.7

Q) Name the recorded hEphA2-SEAP-: absorbance at 450 nm, percentage with respect to hEphA4-SEAP-His as 100% of the item 85 (antibody, V domains shown, constant regions without entry; synthetic humanized antibody light chain variable region sequence; synthetic humanized antibody heavy chain variable region sequence) VL: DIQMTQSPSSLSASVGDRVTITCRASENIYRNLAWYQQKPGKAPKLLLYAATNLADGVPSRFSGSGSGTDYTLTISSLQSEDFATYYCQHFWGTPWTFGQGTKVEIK VH: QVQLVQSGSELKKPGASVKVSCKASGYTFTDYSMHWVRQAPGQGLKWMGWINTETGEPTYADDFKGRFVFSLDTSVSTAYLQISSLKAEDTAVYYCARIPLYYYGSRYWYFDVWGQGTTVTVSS in your answer.
A) 5.1

Q) Name the recorded hEphA2-SEAP-: absorbance at 450 nm, percentage with respect to hEphA4-SEAP-His as 100% of the item 153 (antibody, V domains shown, synthetic humanized antibody heavy chain variable region sequence; synthetic humanized antibody light chain variable region sequence) VH: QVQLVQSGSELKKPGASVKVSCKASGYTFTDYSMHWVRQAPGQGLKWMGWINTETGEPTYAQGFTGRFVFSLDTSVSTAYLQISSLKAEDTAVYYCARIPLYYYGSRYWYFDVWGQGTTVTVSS VL: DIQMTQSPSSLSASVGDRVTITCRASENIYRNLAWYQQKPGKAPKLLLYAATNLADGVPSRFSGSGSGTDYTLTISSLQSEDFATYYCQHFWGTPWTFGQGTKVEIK in your answer.
A) 6.0

Q) Name the recorded hEphA2-SEAP-: absorbance at 450 nm, percentage with respect to hEphA4-SEAP-His as 100% of the item 89 (antibody, V domains shown, constant regions without entry; synthetic humanized antibody light chain variable region sequence; synthetic humanized antibody heavy chain variable region sequence) VL: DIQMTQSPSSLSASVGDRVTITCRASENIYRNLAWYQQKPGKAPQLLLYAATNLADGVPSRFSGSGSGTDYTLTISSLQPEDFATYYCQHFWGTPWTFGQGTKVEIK VH: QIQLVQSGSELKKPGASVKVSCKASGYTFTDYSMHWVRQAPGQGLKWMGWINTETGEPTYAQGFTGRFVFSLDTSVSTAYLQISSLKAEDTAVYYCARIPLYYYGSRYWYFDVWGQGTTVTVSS in your answer.
A) 5.6
